# System: Salmonella enterica
# run description: Antibacterial activity against acrEF-deficient Salmonella enterica NKS176 by CLSI method
# Assay type: functional
endpoint: MIC

compound	experimental result
CC/N=c1\cc2oc3cc(NCC)c(C)cc3c(-c3ccccc3C(=O)OCC)c-2cc1C.Cl [RHODAMINE 6G HYDROCHLORIDE]	> 512 µg/mL
CN(C)c1ccc2nc3ccc(N(C)C)cc3[s+]c2c1.[Cl-] [METHYLENE BLUE ANHYDROUS]	> 512 µg/mL
CCOc1ccc2ccccc2c1C(=O)N[C@@H]1C(=O)N2[C@@H]1SC(C)(C)[C@@H]2C(=O)O	> 512 µg/mL
